species: Oryctolagus cuniculus; assay: Antagonist activity against endothelin A/B2 receptor in New Zealand white rabbit basilar artery assessed as vasodilation by measuring effect on endothelin-1-induced constriction at 10 uM; type: tissue-based; design: scale not given: the % may be the effect or the level left
assay.readout: Activity (%)

[[record]]
compound_smiles = "COc1cc(/C=C/C(=O)c2cccc(NS(=O)(=O)C(C)C)c2)ccc1O"
assay_readout = "Activity"
value_reported = 31.2

[[record]]
compound_smiles = "CCCS(=O)(=O)Nc1cccc(C(=O)/C=C/c2ccc(O)c(OC)c2)c1"
assay_readout = "Activity"
value_reported = 30.8

[[record]]
compound_smiles = "COc1cc(/C=C/C(=O)c2cccc(NS(C)(=O)=O)c2)ccc1O"
assay_readout = "Activity"
value_reported = 22.3

[[record]]
compound_smiles = "COc1cc(/C=C/C(=O)c2cccc(NS(=O)(=O)c3ccc(OC(F)(F)F)cc3)c2)ccc1O"
assay_readout = "Activity"
value_reported = 81.4

[[record]]
compound_smiles = "COc1cc(/C=C/C(=O)c2cccc(NS(=O)(=O)c3ccc(C)cc3)c2)ccc1O"
assay_readout = "Activity"
value_reported = 99.6


---

organism: Oryctolagus cuniculus; assay: Antagonist activity against L-type calcium channel in New Zealand white rabbit basilar artery assessed as vasodilation by measuring effect on 50 mM K+-stimulated depolarization-induced constriction at 10 uM; type: tissue-based; design: scale not given: the % may be the effect or the level left
// reported Activity for each item listed
assay.readout: Activity

[[record]]
compound_smiles = "COc1cc(/C=C/C(=O)c2cccc(NS(C)(=O)=O)c2)ccc1O"
value_reported = "4.2%"

[[record]]
compound_smiles = "COc1cc(/C=C/C(=O)c2cccc(NS(=O)(=O)c3cccc(C(F)(F)F)c3)c2)ccc1O"
value_reported = "52.3%"

[[record]]
compound_smiles = "COc1cc(/C=C/C(=O)c2cccc(NS(=O)(=O)c3cc(Cl)cc(Cl)c3)c2)ccc1O"
value_reported = "37.3%"

[[record]]
compound_smiles = "CCS(=O)(=O)Nc1cccc(C(=O)/C=C/c2ccc(O)c(OC)c2)c1"
value_reported = "55.3%"

[[record]]
compound_smiles = "COc1cc(/C=C/C(=O)c2cccc(NS(=O)(=O)c3ccc([N+](=O)[O-])cc3)c2)ccc1O"
value_reported = "70.7%"

[[record]]
compound_smiles = "COc1cc(/C=C/C(=O)c2cccc(NS(=O)(=O)c3cc(Cl)ccc3Cl)c2)ccc1O"
value_reported = "53.4%"

[[record]]
compound_smiles = "CCCS(=O)(=O)Nc1cccc(C(=O)/C=C/c2ccc(O)c(OC)c2)c1"
value_reported = "42.3%"

[[record]]
compound_smiles = "COc1cc(/C=C/C(=O)c2cccc(NS(=O)(=O)c3ccc(Cl)c(Cl)c3)c2)ccc1O"
value_reported = "30.2%"


---

species on record: Oryctolagus cuniculus; assay: Antagonist activity against endothelin A/B2 receptor in New Zealand white rabbit basilar artery assessed as vasodilation by measuring effect on endothelin-1-induced constriction at 10 uM; type: tissue-based; set-up: scale not given: the % may be the effect or the level left
assay.readout: Activity

[[record]]
compound_smiles = "COc1cc(/C=C/C(=O)c2cccc(NS(=O)(=O)c3ccc(C(F)(F)F)cc3)c2)ccc1O"
value_reported = "46.1%"

[[record]]
compound_smiles = "COc1cc(/C=C/C(=O)c2cccc(NS(=O)(=O)c3ccc(Cl)cc3Cl)c2)ccc1O"
value_reported = "83.4%"

[[record]]
compound_smiles = "COc1cc(/C=C/C(=O)c2cccc(NS(=O)(=O)c3ccc([N+](=O)[O-])cc3)c2)ccc1O"
value_reported = "98.9%"

[[record]]
compound_smiles = "COc1cc(/C=C/C(=O)c2cccc(NS(=O)(=O)c3cccc(C(F)(F)F)c3)c2)ccc1O"
value_reported = "36.5%"

[[record]]
compound_smiles = "COc1cc(/C=C/C(=O)c2cccc(NS(=O)(=O)c3ccc(C(C)=O)cc3)c2)ccc1O"
value_reported = "68.7%"

[[record]]
compound_smiles = "COc1cc(/C=C/C(=O)c2cccc(NS(=O)(=O)c3cc(Cl)cc(Cl)c3)c2)ccc1O"
value_reported = "55.9%"

[[record]]
compound_smiles = "COc1cc(/C=C/C(=O)c2cccc(NS(=O)(=O)c3cccs3)c2)ccc1O"
value_reported = "39.1%"

[[record]]
compound_smiles = "COc1cc(/C=C/C(=O)CC(=O)/C=C/c2ccc(O)c(OC)c2)ccc1O"
value_reported = "8.5%"

[[record]]
compound_smiles = "COc1cc(/C=C/C(=O)c2cccc(NS(=O)(=O)c3ccccc3)c2)ccc1O"
value_reported = "40.2%"

[[record]]
compound_smiles = "COc1cc(/C=C/C(=O)c2cccc(NS(=O)(=O)C(F)(F)F)c2)ccc1O"
value_reported = "34.6%"

[[record]]
compound_smiles = "COc1cc(/C=C/C(=O)c2cccc(NS(=O)(=O)c3ccc(F)cc3)c2)ccc1O"
value_reported = "75.1%"

[[record]]
compound_smiles = "COc1cc(/C=C/C(=O)c2cccc(NS(=O)(=O)c3ccc(Cl)cc3)c2)ccc1O"
value_reported = "78.3%"

[[record]]
compound_smiles = "COc1cc(/C=C/C(=O)c2cccc(NS(=O)(=O)c3c(Cl)cccc3Cl)c2)ccc1O"
value_reported = "99.8%"

[[record]]
compound_smiles = "CCS(=O)(=O)Nc1cccc(C(=O)/C=C/c2ccc(O)c(OC)c2)c1"
value_reported = "19.7%"

[[record]]
compound_smiles = "COc1ccc(S(=O)(=O)Nc2cccc(C(=O)/C=C/c3ccc(O)c(OC)c3)c2)cc1"
value_reported = "56.8%"

[[record]]
compound_smiles = "COc1cc(/C=C/C(=O)c2cccc(NS(=O)(=O)c3cc(Cl)ccc3Cl)c2)ccc1O"
value_reported = "30.4%"

[[record]]
compound_smiles = "COc1cc(/C=C/C(=O)c2cccc(NS(=O)(=O)c3ccc(Cl)c(Cl)c3)c2)ccc1O"
value_reported = "41.8%"


---

test: Antagonist activity against endothelin A/B2 receptor in New Zealand white rabbit basilar artery assessed as vasodilation by measuring effect on endothelin-1-induced constriction; format: tissue-based, Oryctolagus cuniculus
pEC50: −log10 of the molar value.
// reported pEC50 for each item listed
assay.readout: pEC50

[[record]]
compound_smiles = "COc1cc(/C=C/C(=O)c2cccc(NS(=O)(=O)c3ccc(Cl)cc3)c2)ccc1O"
value_reported = 5.23

[[record]]
compound_smiles = "COc1cc(/C=C/C(=O)c2cccc(NS(=O)(=O)c3ccc([N+](=O)[O-])cc3)c2)ccc1O"
value_reported = 5.41

[[record]]
compound_smiles = "COc1cc(/C=C/C(=O)c2cccc(NS(=O)(=O)c3ccc(Cl)cc3Cl)c2)ccc1O"
value_reported = 5.06

[[record]]
compound_smiles = "COc1cc(/C=C/C(=O)c2cccc(NS(=O)(=O)c3ccc(OC(F)(F)F)cc3)c2)ccc1O"
value_reported = 5.21

[[record]]
compound_smiles = "COc1cc(/C=C/C(=O)CC(=O)/C=C/c2ccc(O)c(OC)c2)ccc1O"
value_reported = 4.31

[[record]]
compound_smiles = "COc1cc(/C=C/C(=O)c2cccc(NS(=O)(=O)c3c(Cl)cccc3Cl)c2)ccc1O"
value_reported = 5.74

[[record]]
compound_smiles = "COc1cc(/C=C/C(=O)c2cccc(NS(=O)(=O)c3ccc(C)cc3)c2)ccc1O"
value_reported = 5.57

[[record]]
compound_smiles = "COc1cc(/C=C/C(=O)c2cccc(NS(=O)(=O)c3ccc(F)cc3)c2)ccc1O"
value_reported = 5.19


---

// reported Activity for each item listed
species on record: Oryctolagus cuniculus; assay: Antagonist activity against L-type calcium channel in New Zealand white rabbit basilar artery assessed as vasodilation by measuring effect on 50 mM K+-stimulated depolarization-induced constriction at 10 uM; format: tissue-based; design: scale not given: the % may be the effect or the level left
assay.readout: Activity (%)

[[record]]
compound_smiles = "COc1ccc(S(=O)(=O)Nc2cccc(C(=O)/C=C/c3ccc(O)c(OC)c3)c2)cc1"
assay_readout = "Activity"
unit_string = "%"
value_reported = 26.4

[[record]]
compound_smiles = "COc1cc(/C=C/C(=O)c2cccc(NS(=O)(=O)c3ccc(C(F)(F)F)cc3)c2)ccc1O"
assay_readout = "Activity"
unit_string = "%"
value_reported = 65.8

[[record]]
compound_smiles = "COc1cc(/C=C/C(=O)c2cccc(NS(=O)(=O)c3cccs3)c2)ccc1O"
assay_readout = "Activity"
unit_string = "%"
value_reported = 32.4

[[record]]
compound_smiles = "COc1cc(/C=C/C(=O)CC(=O)/C=C/c2ccc(O)c(OC)c2)ccc1O"
assay_readout = "Activity"
unit_string = "%"
value_reported = 58.4

[[record]]
compound_smiles = "COc1cc(/C=C/C(=O)c2cccc(NS(=O)(=O)C(F)(F)F)c2)ccc1O"
assay_readout = "Activity"
unit_string = "%"
value_reported = 10.7

[[record]]
compound_smiles = "COc1cc(/C=C/C(=O)c2cccc(NS(=O)(=O)c3ccc(Cl)cc3Cl)c2)ccc1O"
assay_readout = "Activity"
unit_string = "%"
value_reported = 4.2

[[record]]
compound_smiles = "COc1cc(/C=C/C(=O)c2cccc(NS(=O)(=O)c3ccc(Cl)cc3)c2)ccc1O"
assay_readout = "Activity"
unit_string = "%"
value_reported = 93.4

[[record]]
compound_smiles = "COc1cc(/C=C/C(=O)c2cccc(NS(=O)(=O)c3ccc(C)cc3)c2)ccc1O"
assay_readout = "Activity"
unit_string = "%"
value_reported = 98.7

[[record]]
compound_smiles = "COc1cc(/C=C/C(=O)c2cccc(NS(=O)(=O)c3ccccc3)c2)ccc1O"
assay_readout = "Activity"
unit_string = "%"
value_reported = 50.4

